- tested.system: corticotropin releasing factor 1 receptor
- experiment.summary: cell-based or functional assay
Ends that are not written are not given here.
recorded.endpoint: CRF1R Emax % (%)
Kindly provide the numeric value in % only, without the unit symbol.

>>> endpoint_result("PSLSIDLPLLLLRTLLELEKTQSQRERAEQNARIFARV-NH2 [SEQ ID NO 333]")
43.8

Field CRF1R Emax % (entry ZGPPISIDLPFQLLRKVIEIEKQEKEKQQAANNALLLATI (C-terminal amide) [SEQ ID NO 352] ) reads 82.6

Field CRF1R Emax % (entry ZGPPISIDLPYHLLRKMIEIEKQEKEKQQAANNALLLDTI (C-terminal amide) [SEQ ID NO 314] ) reads 82.4
